# targetUnderTest: T1, 006 PSMA Fab (biotinylated (site not given))
# T1 construct: Biotinylated PSMA Fab captured on neutravidin coated plates for the clonal phage ELISA; also called Anti-PSMA Fab
# protocolDetails: clonal phage ELISA, biotinylated PSMA Fab on neutravidin plate, anti-M13 HRP detection;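 note: crude clonal phage supernatants added to wells pretreated with blocking buffer either with or without PSMA antigen, bound phage read after washing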
Where no end group is shown, it is not given here.
The binders listed here are annotated with their Phage binding ELISA signal, Anti-PSMA Fab.
API note: the answer field is a bare number with no unit suffix.

Here's what some known entries look like.
Need Phage binding ELISA signal, Anti-PSMA Fab of IPKWCTPSWMCEWV (cysteine pairing not given here; also: displayed on phage as fusion to pIII, pIII and linker sequence not given here, not shown: fused to pIII of the bacteriophage) [Phage-2504] , thanks.
1.2

And for GTNWCKPDWMCVGL (cysteine pairing not given here; also: displayed on phage as fusion to pIII, pIII and linker sequence not given here, not shown: fused to pIII of the bacteriophage) [Phage-2500] ?
1.21

And for GEHWCIPAWMCEKM (cysteine pairing not given here; also: displayed on phage as fusion to pIII, pIII and linker sequence not given here, not shown: fused to pIII of the bacteriophage) [Phage-2498] ?
1.21

And for VQMLCIPAWMCGME (cysteine pairing not given here; also: displayed on phage as fusion to pIII, pIII and linker sequence not given here, not shown: fused to pIII of the bacteriophage) [Phage-2506] ?
1.2

And for TYKMCIPAWKCAVS (cysteine pairing not given here; also: fused to phage pIII, linker and fusion site not given here, not shown: fused to pIII of the bacteriophage) [Phage-2509] ?
1.19

And for EPKMCTPSWMCRGF (cysteine pairing not given here; also: displayed on phage as fusion to pIII, pIII and linker sequence not given here, not shown: fused to pIII of the bacteriophage) [Phage-2502] ?
1.2

New cases:
Need Phage binding ELISA signal, Anti-PSMA Fab of LVKLCSPEWMCVGM (cysteine pairing not given here; also: fused to phage pIII, linker and fusion site not given here, not shown: fused to pIII of the bacteriophage) [Phage-2511] , thanks.
1.19

And for SETWCIPAWMCLDG (cysteine pairing not given here; also: displayed on phage as fusion to pIII, pIII and linker sequence not given here, not shown: fused to pIII of the bacteriophage) [Phage-2503] ?
1.2
